Assay Method Text: in vitro
Cond: monkey, vero cells
Endpoint Label: CC50

structure_smiles=NCC(=O)NC(CCC(=O)N[C@@H](Cc1c(Sc2cccc([N+](=O)[O-])c2)[nH]c2ccccc12)C(=O)O)(CCC(=O)N[C@@H](Cc1c(Sc2cccc([N+](=O)[O-])c2)[nH]c2ccccc12)C(=O)O)CCC(=O)N[C@@H](Cc1c(Sc2cccc([N+](=O)[O-])c2)[nH]c2ccccc12)C(=O)O endpoint_label=CC50 data_value="> 100 µM"

* * *

Assay Method Text: in vitro
Cond: human, a549-ace2-tmprss2 cells
Endpoint Label: CC50

structure_smiles=CC(=O)c1ccc(Sc2[nH]c3ccccc3c2C[C@H](NC(=O)CCC(CCC(=O)N[C@@H](Cc2c(Sc3ccc(C(C)=O)cc3)[nH]c3ccccc23)C(=O)O)(CCC(=O)N[C@@H](Cc2c(Sc3ccc(C(C)=O)cc3)[nH]c3ccccc23)C(=O)O)NC(=O)CN)C(=O)O)cc1 data_value="> 100 µM"

Entry source: patent EP4122917A1
